System: M14 melanoma
Assay: NCI tumour cell line growth inhibition, 48 h
# GI50 listing for each entry below

- smiles representation: "CCN(Cc1cccc(Cl)c1)c1ccc(CO)c(Cl)c1"
  GI50: "12.6 µM"
- smiles representation: "Cn1c2c(c3c(Cl)nncc31)Cc1ccccc1-2"
  GI50: "28.1 µM"
- smiles representation: "COc1cccc(Nc2nc3ccccc3c3occc23)c1"
  GI50: "13.9 µM"
- smiles representation: "Cc1cn(Cc2ccc(C34CC5CC(CC(C5)C3)C4)c(O)c2)c(=O)[nH]c1=O"
  GI50: "11.5 µM"
- smiles representation: "CCCCCCCCCC[C@H](O)[C@H](O)CC[C@@H](O)[C@H]1CC[C@@H]([C@H]2CC[C@H](CCCCCCC[C@@H](O)CC3=C[C@H](C)OC3=O)O2)O1"
  GI50: "23.1 µM"
